Hi! I'm sharing some pKi results obtained with UniProt:Q16790.
Field pKi (float): negative decimal logarithm of the concentration in molar.

- Smiles: "N=C(N)NCCc1ccc(S(N)(=O)=O)cc1"
  pKi: 7.47

Below: the item to evaluate.
Value sought: pKi, system UniProt:Q16790, item `N=C(N)Nc1ccc(C(=O)O)cc1` . Result: 5.59

###

biological target: UniProt:O43570
Sequence (O43570 whole entry): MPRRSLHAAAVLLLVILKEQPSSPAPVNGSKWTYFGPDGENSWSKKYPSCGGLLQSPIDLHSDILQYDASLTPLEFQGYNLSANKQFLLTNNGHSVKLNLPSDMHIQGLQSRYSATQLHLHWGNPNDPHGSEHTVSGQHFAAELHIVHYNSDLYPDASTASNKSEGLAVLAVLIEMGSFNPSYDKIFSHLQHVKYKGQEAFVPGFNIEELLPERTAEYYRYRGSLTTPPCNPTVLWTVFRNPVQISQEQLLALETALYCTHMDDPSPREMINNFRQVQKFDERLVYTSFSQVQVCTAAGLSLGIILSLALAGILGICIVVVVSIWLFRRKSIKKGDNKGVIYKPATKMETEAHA
Quantity: Ki (nM)
Answer in nM, number only, no unit symbol.

Value sought: Ki, system UniProt:O43570, item `N=C(N)NCCc1ccc(S(N)(=O)=O)cc1` . Result: 14

Data origin: ChEMBL document CHEMBL2321754
